system: Adenosine receptor A3 (Homo sapiens)
Sequence (P0DMS8 whole entry): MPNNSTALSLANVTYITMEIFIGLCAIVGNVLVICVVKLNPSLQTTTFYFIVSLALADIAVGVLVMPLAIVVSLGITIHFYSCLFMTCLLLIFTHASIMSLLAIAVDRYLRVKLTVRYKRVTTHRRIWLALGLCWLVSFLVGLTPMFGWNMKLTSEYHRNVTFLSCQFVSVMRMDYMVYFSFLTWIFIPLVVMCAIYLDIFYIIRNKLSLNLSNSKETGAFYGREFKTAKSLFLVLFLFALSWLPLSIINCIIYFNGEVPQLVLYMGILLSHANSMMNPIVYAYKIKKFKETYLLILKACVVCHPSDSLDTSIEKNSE
test_name: Displacement of [125I]ABA from human recombinant adenosine A3 receptor by rapid filtration technique
Lab note: compare Ki with 0.04 µM, writing Condition met if less and Condition not met if equal or more.

Q) # strict comparison: is reported Ki < 0.04 µM? input = CNC(=O)[C@H]1O[C@@H](n2cnc3c(Nc4ccc(CCNC(=O)c5cc(C(C)(C)C)c(O)c(C(C)(C)C)c5)cc4)ncnc32)[C@H](O)[C@@H]1O
A) Condition not met

Q) # strict comparison: is reported Ki < 0.04 µM? input = CC1(C)NC(C)(C)c2cc(Nc3ncnc4c3ncn4[C@@H]3O[C@H](CO)[C@@H](O)[C@H]3O)ccc21
A) Condition not met

Q) # strict comparison: is reported Ki < 0.04 µM? input = CNC(=O)[C@H]1O[C@@H](n2cnc3c(Nc4ccc5c(c4)C(C)(C)N([O])C5(C)C)ncnc32)[C@H](O)[C@@H]1O
A) Condition not met

Q) # strict comparison: is reported Ki < 0.04 µM? input = CNC(=O)[C@H]1O[C@@H](n2cnc3c(Nc4ccc(CCNC(=O)c5cc(OC)c(OC)c(OC)c5)cc4)ncnc32)[C@H](O)[C@@H]1O
A) Condition met

Q) # strict comparison: is reported Ki < 0.04 µM? input = CNC(=O)[C@H]1O[C@@H](n2cnc3c(NCc4ccc(CNC(=O)c5cc(C(C)(C)C)c(O)c(C(C)(C)C)c5)cc4)ncnc32)[C@H](O)[C@@H]1O
A) Condition met

These measurements were taken from ChEMBL document CHEMBL1158581.
